# tested-target: CK1α (Homo sapiens, UniProt P48729)
# Construct: purchased Invitrogen
# Sequence (P48729 whole entry): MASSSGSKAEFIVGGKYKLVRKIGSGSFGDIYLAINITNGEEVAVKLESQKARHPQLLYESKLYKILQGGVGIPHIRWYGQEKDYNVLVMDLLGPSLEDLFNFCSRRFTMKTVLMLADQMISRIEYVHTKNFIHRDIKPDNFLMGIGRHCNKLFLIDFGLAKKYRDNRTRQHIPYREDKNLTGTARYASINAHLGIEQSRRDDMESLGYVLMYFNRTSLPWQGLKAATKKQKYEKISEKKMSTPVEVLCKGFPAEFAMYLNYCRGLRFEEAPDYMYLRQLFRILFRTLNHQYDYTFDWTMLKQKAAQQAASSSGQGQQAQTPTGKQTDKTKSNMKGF
# measurement-description: In vitro kinase assay (33P, peptide substrate)
# Assay type: biochemical
We begin with a simple list: items and their reported IC50.

molecule | tested-target | IC50
COc1cc(OC)c(C=C2C(O)=Nc3ccccc32)c(OC)c1 [IC261] | CK1α (Homo sapiens, UniProt P48729) | 6.21 µM
NC(=O)c1ccc(-c2nc(-c3ccc4c(c3)OCO4)c(-c3ccccn3)[nH]2)cc1 [SB431542] | CK1α (Homo sapiens, UniProt P48729) | 1.4 µM

---

# tested-target: CK1γ1 (Homo sapiens, UniProt Q9HCP0)
# Construct: purchased Invitrogen
# Sequence (Q9HCP0 whole entry): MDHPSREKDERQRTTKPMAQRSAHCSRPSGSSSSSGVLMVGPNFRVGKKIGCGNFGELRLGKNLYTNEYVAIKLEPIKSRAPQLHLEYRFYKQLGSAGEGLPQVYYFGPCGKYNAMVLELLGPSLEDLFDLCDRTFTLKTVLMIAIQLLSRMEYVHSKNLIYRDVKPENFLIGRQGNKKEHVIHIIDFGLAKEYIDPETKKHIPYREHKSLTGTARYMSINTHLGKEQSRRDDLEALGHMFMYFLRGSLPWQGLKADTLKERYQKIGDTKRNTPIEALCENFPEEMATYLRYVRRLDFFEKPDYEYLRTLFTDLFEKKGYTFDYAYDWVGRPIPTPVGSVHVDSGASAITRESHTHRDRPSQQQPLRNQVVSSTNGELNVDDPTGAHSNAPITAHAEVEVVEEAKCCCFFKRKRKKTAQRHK
# measurement-description: In vitro kinase assay (33P, peptide substrate)
# Type: biochemical

chemical-string | IC50
COc1cc(OC)c(C=C2C(O)=Nc3ccccc32)c(OC)c1 | > 100 µM
